- assayedSystem: CauErg11-6×His (Candidozyma auris, UniProt A0A2H1A309)
- Construct: full-length, C-terminal GGR linker and 6xHis kept; DM-solubilised, Ni-NTA partially purified; mutant Y132F in strain Y2768
- Sequence (A0A2H1A309 entry or part of it): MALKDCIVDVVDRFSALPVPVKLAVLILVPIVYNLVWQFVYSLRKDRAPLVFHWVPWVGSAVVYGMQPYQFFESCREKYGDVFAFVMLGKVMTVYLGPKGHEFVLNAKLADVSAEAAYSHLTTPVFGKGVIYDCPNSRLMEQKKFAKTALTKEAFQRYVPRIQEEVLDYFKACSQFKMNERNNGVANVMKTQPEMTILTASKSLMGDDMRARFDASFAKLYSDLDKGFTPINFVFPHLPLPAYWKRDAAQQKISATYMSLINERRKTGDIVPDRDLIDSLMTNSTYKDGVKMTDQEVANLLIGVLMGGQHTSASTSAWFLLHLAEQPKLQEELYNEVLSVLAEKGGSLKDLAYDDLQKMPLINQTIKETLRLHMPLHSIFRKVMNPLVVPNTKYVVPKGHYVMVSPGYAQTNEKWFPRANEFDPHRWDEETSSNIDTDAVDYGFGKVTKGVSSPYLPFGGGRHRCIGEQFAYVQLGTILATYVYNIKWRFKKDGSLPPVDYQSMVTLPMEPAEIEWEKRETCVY
- experiment: type II difference spectra titration
resultType: pKd
A value of pKd is the negative decimal logarithm of a concentration given in moles per litre.

Query: Please give the measured pKd for this compound: C[C@@H](c1nc(-c2ccc(C#N)cc2)cs1)[C@](O)(Cn1cncn1)c1cc(F)ccc1F
Response: 6.70

Query: Which measured pKd value corresponds to C[C@@H](c1ncncc1F)[C@](O)(Cn1cncn1)c1ccc(F)cc1F ?
Response: 6.13

Query: pKd lookup needed for CC[C@@H]([C@H](C)O)n1ncn(-c2ccc(N3CCN(c4ccc(OC[C@@H]5CO[C@@](Cn6cncn6)(c6ccc(F)cc6F)C5)cc4)CC3)cc2)c1=O , thanks.
Response: 6.47
